- assay_name: Pharmacokinetic assessment in mice (serum, LC-MS/MS)
- Format: in vivo, C57BL/6 mice
- particulars: female, C57BL/6; 200 mg/kg single dose, IP injection, mouse serum
- Experimental: C57BL/6 mice were treated with lolamcyin at a single dose of 200 mg/kg via IP injection (formulated in 50% DMSO and 50% PEG400) or oral gavage (formulated in 20% DMSO, 30% water, and 50% PEG400) with three mice per time point (0, 15, 30, 45, 60, 120, 240, 480, 960, and 1,440 min). Mice were then sacrificed and serum concentrations of lolamycin were determined by liquid chromatography-tandem mass spectrometry (LC-MS/MS). […] Next, the pharmacokinetic assessment via oral gavage was determined. […]
quantity_name: AUC (ng·h/mL)
Give bare numbers, in ng·h/mL.

Which AUC is listed for "Cc1cc(-c2c[nH]nc2-c2cccc(OCc3cccc(C#N)c3)c2)cc(C)n1" ?
43400

* * *

- System: HFF-1 cells
- assay_name: Cell viability (Alamar Blue), mammalian cell line
- Type: cell-based
- particulars: Homo sapiens, HFF-1, 24 h, read-out: IC50, mammalian cell lines
quantity_name: pIC50
Answers are plain numbers, as −log10 of the molar value.

Which pIC50 is listed for "Cc1cc(-c2c[nH]nc2-c2cccc(OCc3cccc(C#N)c3)c2)cc(C)n1" ?
4.07

* * *

- assay_name: Aqueous solubility limit
- Format: physicochemical
- particulars: aqueous medium (not further specified); limit to which compounds were tested in MIC assays
quantity_name: solubility (µg/mL)
Answers are plain numbers, in µg/mL.

Which solubility is listed for "Cc1cc(-c2c[nH]nc2-c2cccc(OCc3cccc(C#N)c3)c2)cc(C)n1" ?
128

* * *

- assay_name: Pharmacokinetic assessment in mice (serum, LC-MS/MS)
- Format: in vivo, C57BL/6 mice
- particulars: female, C57BL/6; 200 mg/kg single dose, oral gavage, mouse serum
quantity_name: AUC (ng·h/mL)
One number for each entry, in ng·h/mL.

Which AUC is listed for "Cc1cc(-c2c[nH]nc2-c2cccc(OCc3cccc(C#N)c3)c2)cc(C)n1" ?
20500

* * *

- assay_name: Pharmacokinetic assessment in mice (serum, LC-MS/MS)
- Type: in vivo, C57BL/6 mice
- particulars: female, C57BL/6, mouse, serum; 200 mg/kg single dose, IP injection
quantity_name: half-life (h)
Answers are plain numbers, in h.

Which half-life is listed for "Cc1cc(-c2c[nH]nc2-c2cccc(OCc3cccc(C#N)c3)c2)cc(C)n1" ?
2.07

* * *

- assay_name: Aqueous solubility limit
- Format: physicochemical
- particulars: limit to which compounds were tested in MIC assays
quantity_name: solubility
Give the value; after it, write the unit.

Which solubility is listed for Cc1cc(-c2c[nH]nc2-c2cccc(OCc3cccc(C#N)c3)c2)cc(C)n1 [Compound 12] ?
128 µg/mL

* * *

- assay_name: Pharmacokinetic assessment in mice (serum, LC-MS/MS)
- Format: in vivo, C57BL/6 mice
- particulars: female, C57BL/6, mouse, serum; 200 mg/kg single dose, oral gavage
quantity_name: half-life (h)
Give bare numbers, in h.

Which half-life is listed for "Cc1cc(-c2c[nH]nc2-c2cccc(OCc3cccc(C#N)c3)c2)cc(C)n1" ?
1.1
